Values were extracted from patent US11753407B2.

A collection of molecules and their measured EC (1.5-fold increase)
Tested on: SMN2 minigene mRNA (SMN2-A minigene) in HEK293H cells
TEST_METHOD_NOTES: SMN2 minigene mRNA splicing RT-qPCR assay in cultured cells
Type: cell-based, human
SETUP_CONDITIONS: Homo sapiens, HEK293-H; concentration increasing full length SMN2 mRNA 1.5-fold relative to vehicle-treated cells; HEK293H cells with SMN2-A minigene, 24 hours, 7-point concentration data; read-out: EC1.5x for production of full length SMN2 mRNA
MEASURED_PARAMETER: EC (1.5-fold increase)

CHEMICAL_STRING	OBSERVED
Cc1cn2cc(-c3cc(=O)n4cc(N5C[C@@H](C)N[C@@H](C)C5)ccc4n3)cc(C3CC3)c2n1	0.1 to 0.3 µM
CCOc1cc(-c2cc(=O)n3cc(N4CCNCC4)ccc3n2)ccc1OC	0.3 to 1 µM
Cc1cn2nc(-c3cc(=O)n4cc(N5CC[C@H](CN(C)C)C5)ccc4n3)cc2c(C)n1	< 0.1 µM
Cc1cc2cc(-c3cc(=O)n4cc(N5CCN(CCO)CC5)ccc4n3)oc2c(C)n1	< 0.1 µM
Cc1cn2nc(-c3cc(=O)n4cc(N5C[C@@H](C)N[C@@H](C)C5)ccc4n3)cc2cn1	< 0.1 µM
COc1cc(F)cc(-c2cc(=O)n3cc(N4CCN[C@@H](C)C4)ccc3n2)c1	1 to 3 µM
CCc1nc(C)cn2cc(-c3cc(=O)n4cc(N5CCN6CCC[C@H]6C5)ccc4n3)cc12	< 0.1 µM
COc1c(F)cc(-c2cc(=O)n3cc(N4CCN[C@@H](C)C4)ccc3n2)cc1F	1 to 3 µM
Cc1cn2cc(-c3cc(=O)n4cc(C5CCN(CCO)CC5)ccc4n3)ccc2n1	< 0.1 µM
CCc1nc(C)cn2nc(-c3cc(=O)n4cc(N5CCN(CCCF)[C@H](C)C5)ccc4n3)cc12	< 0.1 µM
COc1ccc(-c2cc(=O)n3cc(N4C[C@@H](C)N[C@@H](C)C4)ccc3n2)cc1OC	1 to 3 µM
CCN1CC=C(c2ccc3nc(-c4cc5c(C)nc(C)cn5n4)cc(=O)n3c2)CC1	< 0.1 µM
Cn1cc2cc(-c3cc(=O)n4cc(C5CCNCC5)ncc4n3)ccc2n1	< 0.1 µM
Cc1cn2nc(-c3cc(=O)n4cc(CCCN)ccc4n3)cc2c(C)n1	0.1 to 0.3 µM
CN1CCN(c2ccc3nc(-c4ccc5c(cnn5C)c4)cc(=O)n3c2)CC1	0.1 to 0.3 µM

* * *

System: SMN2 minigene mRNA (SMN2-A minigene) in HEK293H cells
TEST_METHOD_NOTES: SMN2 minigene mRNA splicing RT-qPCR assay in cultured cells
Format: cell-based, human
SETUP_CONDITIONS: Homo sapiens, HEK293-H; concentration increasing full length SMN2 mRNA 1.5-fold relative to vehicle-treated cells; HEK293H cells with SMN2-A minigene, 24 hours, 7-point concentration data; read-out: EC1.5x for production of full length SMN2 mRNA

COMPOUND	EC (1.5-fold increase)
Cc1cn2cc(-c3cc(=O)n4cc(N5CCCN(C)CC5)ccc4n3)cc(Cl)c2n1	< 0.1 µM
Cc1cn2nc(-c3cc(=O)n4cc(N5C[C@@H]6C[C@H]5CN6C)ccc4n3)cc2c(C)n1	0.1 to 0.3 µM
COc1ccc(-c2cc(=O)n3cc(N4CCC(NC(C)C)CC4)cc(C)c3n2)cc1OC	< 0.1 µM
Cc1cn2cc(-c3cc(=O)n4cc(C5=CCNCC5)ccc4n3)cc2c(C)n1	< 0.1 µM
COc1cccc(-c2cc(=O)n3cc(N4CCCN(C)CC4)ccc3n2)c1	3 to 30 µM
Cc1cn2cc(-c3ccc4nc(C5CCNCC5)cc(=O)n4c3)ccc2n1	< 0.1 µM
CCN1CC=C(c2cc(C)c3nc(-c4ccc(OC)c(OC)c4)cc(=O)n3c2)CC1	< 0.1 µM
CCCN1CC=C(c2ccc3nc(-c4ccc(OC)c(OC)c4)cc(=O)n3c2)CC1	0.1 to 0.3 µM
CCc1nc(C)cn2nc(-c3cc(=O)n4cc(N5CC[C@@H](N(C)C)C5)ccc4n3)cc12	< 0.1 µM
Cc1cn2cc(-c3cc(=O)n4cc(N5CC[C@@H](N(C)C)C5)ccc4n3)cc(F)c2n1	< 0.1 µM
COc1ccc(-c2cc(=O)n3cc(N4CCN[C@@H](C)C4)ccc3c2)cc1OC	1 to 3 µM
COc1ccc(-c2cc(=O)n3cc(N4CCCNCC4)ccc3n2)cc1OC	1 to 3 µM
Cc1cn2nc(-c3cc(=O)n4cc(C5=CCNCC5)ccc4n3)cc2c(C)n1	< 0.1 µM
CCN1CCC2CN(c3ccc4nc(-c5cc6c(C)nc(C)cn6n5)cc(=O)n4c3)CCC21 (stereo not drawn)	< 0.1 µM
Cc1cn2nc(-c3cc(=O)n4cc(C5CCNCC5)ccc4n3)cc2c(C)n1	< 0.1 µM
CCc1nc(C)cn2nc(-c3cc(=O)n4cc(N5CCN6CCC[C@@H]6C5)ccc4n3)cc12	< 0.1 µM
CCc1nc(C)cn2nc(-c3cc(=O)n4cc(C5CCN(CCF)CC5)ccc4n3)cc12	< 0.1 µM
CCc1cc(C2CCN(C)CC2)cn2c(=O)cc(-c3ccc(OC)c(OC)c3)nc12	0.3 to 1 µM
O=c1cc(-c2ccc3c(c2)OCCO3)nc2ccc(N3CCCNCC3)cn12	3 to 30 µM
Cc1cn2cc(-c3cc(=O)n4cc(N5C[C@@H](C)N[C@@H](C)C5)ccc4n3)cc(Cl)c2n1	< 0.1 µM
Cc1nc2ccc(-c3cc(=O)n4cc(N5CCNC(C)(C)C5)ccc4n3)cc2s1	< 0.1 µM
Cc1cn2cc(-c3ccc4nc(C5CCN(C)CC5)cc(=O)n4c3)cc(F)c2n1	< 0.1 µM
CCN(CC)CC1CN(c2ccc3nc(-c4cc5c(C)nc(C)cn5n4)cc(=O)n3c2)C1	< 0.1 µM
Cc1nc2ccc(-c3cc(=O)n4nc(C5CCN(C)CC5)ccc4n3)cc2o1	0.1 to 0.3 µM

* * *

CHEMICAL_STRING	melting point
Cc1cc2cc(-c3cc(=O)n4cc(N5C[C@@H](C)N[C@@H](C)C5)ccc4n3)oc2c(C)n1	260 to 262 °C
CCCc1nc(C)cn2nc(-c3cc(=O)n4cc(N5CCN(C)CC5)ccc4n3)cc12	246 to 248 °C
Cc1cn2cc(-c3cc(=O)n4cc(N5CCN(C)[C@H](C)C5)ccc4n3)cc(F)c2n1	279 to 282 °C
CCc1nc(C)cn2nc(-c3cc(=O)n4cc(N5CCN(C6CCC6)CC5)ccc4n3)cc12	275 to 278 °C
CCc1nc(C)cn2cc(-c3cc(=O)n4cc(N5CCCNCC5)ccc4n3)cc12	200 to 202 °C

* * *

Tested on: SMN2 minigene mRNA (SMN2-A minigene) in HEK293H cells
TEST_METHOD_NOTES: SMN2 minigene mRNA splicing RT-qPCR assay in cultured cells
Format: cell-based, human
SETUP_CONDITIONS: Homo sapiens, HEK293-H; concentration increasing full length SMN2 mRNA 1.5-fold relative to vehicle-treated cells; HEK293H cells with SMN2-A minigene, 24 hours, 7-point concentration data; read-out: EC1.5x for production of full length SMN2 mRNA

CHEMICAL_STRING	TARGET_DESC	EC (1.5-fold increase)
CN1CC=C(c2ccc3nc(-c4ccc5c(cnn5C)c4)cc(=O)n3c2)CC1	SMN2 minigene mRNA (SMN2-A minigene) in HEK293H cells	< 0.1 µM
Cc1cn2nc(-c3cc(=O)n4cc(N5CCNC(C)(C)C5)ccc4n3)cc2c(C)n1	SMN2 minigene mRNA (SMN2-A minigene) in HEK293H cells	< 0.1 µM
COc1ccc(-c2cc(=O)n3cc(N4C[C@H]5CN(CCO)C[C@H]5C4)ccc3n2)cc1F	SMN2 minigene mRNA (SMN2-A minigene) in HEK293H cells	0.1 to 0.3 µM
CCN1C[C@@H]2C[C@H]1CN2c1ccc2nc(-c3cc4c(C)nc(C)cn4n3)cc(=O)n2c1	SMN2 minigene mRNA (SMN2-A minigene) in HEK293H cells	0.1 to 0.3 µM
